meta.source: patent US20110054149A1

# SYSTEM UNDER TEST: T1, GST-human NOGO-A56 (human, UniProt Q9NQC3 586-785)
# T1 construct: also called hNOGO; recombinant human NOGO; not shown: Glutathione S-transferase (GST) tag encoded by vector pGEX-6P1, N-terminal to the NOGO-A fragment; the tag and linker se
# T1 sequence: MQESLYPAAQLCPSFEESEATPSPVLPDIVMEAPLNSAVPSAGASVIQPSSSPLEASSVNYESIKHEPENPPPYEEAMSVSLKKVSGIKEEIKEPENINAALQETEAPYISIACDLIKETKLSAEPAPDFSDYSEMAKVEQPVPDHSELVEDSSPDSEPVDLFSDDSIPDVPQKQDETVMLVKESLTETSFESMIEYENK
# ASSAY OVERVIEW: SPR off-rate ranking (Biacore), CHO-K1 transfection supernatant over GST-human NOGO-A56 chip; single experiment
The entries below come with measured koff values attached.

BINDER	koff / s⁻¹
H14L16 (antibody, human IgG1, kappa, V domains shown, Humanised 2A10; human gamma-1 mutated constant region, human kappa) VH: QVQLVQSGAEVVKPGASVKLSCKASGYTFTSYWMHWVKQAPGQGLEWIGNINPSNGGTNYNEKFKSRATLTRDTSTSTAYMELSSLRSEDTAVYYCELGQGYWGQGTLVTVSS VL: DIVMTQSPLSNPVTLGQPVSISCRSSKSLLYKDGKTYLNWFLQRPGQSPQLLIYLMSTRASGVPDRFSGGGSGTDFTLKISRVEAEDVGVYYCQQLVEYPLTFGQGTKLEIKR	0.0089
H15L16 (antibody, human IgG1, kappa, V domains shown, Humanised 2A10; tested as CHO-K1 transfection supernatant; Human gamma-1 mutated constant region, human kappa) VH: QVQLVQSGAEVVKPGASVKLSCKASGYTFTSYWMHWVKQRPGQGLEWIGNINPSNGGTNYNEKFKSKATLTVDTSSSTAYMELSSLRSEDSAVYYCELGQGYWGQGTLVTVSS VL: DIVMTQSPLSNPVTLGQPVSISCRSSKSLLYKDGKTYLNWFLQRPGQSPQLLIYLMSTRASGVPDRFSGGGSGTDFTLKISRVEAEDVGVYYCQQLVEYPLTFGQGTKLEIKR	0.00604
H6L17 (antibody, human IgG1, kappa, V domains shown, Humanised 2A10; tested as CHO-K1 transfection supernatant; Human gamma-1 mutated constant region, human kappa) VH: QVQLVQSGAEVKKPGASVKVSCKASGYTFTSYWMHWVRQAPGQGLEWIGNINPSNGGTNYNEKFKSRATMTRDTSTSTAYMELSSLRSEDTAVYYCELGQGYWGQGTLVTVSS VL: DIVMTQDPLSLPVTLGQPASISCRSSKSLLYKDGKTYLNWFQQRPGQSPQLLIYLMSTRASGVSDRFSGSGSGTDFTLKISRVEAEDVGVYYCQQLVEYPLTFGQGTKLEIKR	0.0158
